Tested on: HS578T
test method notes: area over the GR curve, 72 h; higher = more effect;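 also: Dye Drop or Deep Dye Drop imaging of viable cells in 384-well plates (Hoechst nuclei, LIVE/DEAD dye), nine half-log doses, GR normalized to DMSO controls and time-zero plates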
Reported values of area over the GR curve for individual entries
Respond with the bare value in GR.

Would you please look over these solved cases?
Recorded area over the GR curve for CCCCOc1c(C(=O)c2c(F)cc(C)cc2F)c[nH]c2nncc1-2 (max 10 µM) , please? 0.651

Another molecule to check: COc1cc(N2CCN(C)CC2)ccc1Nc1ncc2c(n1)N(C)c1ccccc1C(=O)N2CC(F)(F)F 0.0103

Another molecule to check: C=CC(=O)Nc1ccc(C(=O)Nc2[nH]nc3c2CN(C(=O)N[C@H](CN(C)C)c2ccccc2)C3(C)C)cc1 [YKL-5-124] (max 10 µM) 0.815

Another molecule to check: CC1(N)CCN(c2cnc(-c3cccc(Cl)c3Cl)c(N)n2)CC1 [SHP099] (max 10 µM) 0.142

Another molecule to check: Cc1nc(-c2cn3c(n2)-c2ccc(-c4cnn(C(C)(C)C(N)=O)c4)cc2OCC3)n(C(C)C)n1 [Taselisib/GDC0032] (max 10 µM) 0.374

More entries:
Recorded area over the GR curve for CO[C@@H](C)Cn1c(=O)n(C)c2cnc3ccc(-c4cncc(C(C)(C)O)c4)cc3c21 (max 10 µM) , please? 0.688

Another molecule to check: O=C(CCCCCCC(=O)Nc1ccccc1)NO [Vorinostat] (max 10 µM) 0.269

Another molecule to check: CC(=O)c1c(C)c2cnc(Nc3ccc(N4CCNCC4)cn3)nc2n(C2CCCC2)c1=O (max 3.162 µM) 0.32

Another molecule to check: CC(=O)c1c(C)c2cnc(Nc3ccc(N4CCN(CCOCCOCCOCCNC(=O)COc5cccc6c5C(=O)N(C5CCC(=O)NC5=O)C6=O)CC4)cn3)nc2n(C2CCCC2)c1=O (stereo not drawn) [BSJ-03-123] (max 10 µM) 0.298

Another molecule to check: COc1cc([C@@H]2c3cc4c(cc3[C@@H](O[C@@H]3O[C@@H]5CO[C@@H](C)O[C@H]5[C@H](O)[C@H]3O)[C@H]3COC(=O)[C@H]23)OCO4)cc(OC)c1O [Etoposide] (max 10 µM) 0.377

Another molecule to check: CC(=O)O[C@H]1C(=O)[C@@]2(C)[C@H]([C@H](OC(=O)c3ccccc3)[C@]3(O)C[C@H](OC(=O)[C@H](O)[C@@H](NC(=O)c4ccccc4)c4ccccc4)C(C)=C1C3(C)C)[C@]1(OC(C)=O)CO[C@@H]1C[C@@H]2O [Paclitaxel] (max 1 µM) 0.954

Another molecule to check: CNCc1ccc(-c2[nH]c3cc(F)cc4c3c2CCNC4=O)cc1 [Rucaparib] (max 10 µM) 0.0974

Another molecule to check: Cc1nn(C)c(COc2ccc(N3CCN(S(=O)(=O)N(C)C)CC3)cc2)c1-c1cccc2c(CCCOc3cccc4ccccc34)c(C(=O)O)n(CCN3CCOCC3)c12 (max 10 µM) -0.0079
